tgt: human Factor IXa (human, UniProt P00740 47-191; P00740 227-461)
assay-comment: cell-based or functional assay
Square brackets hold non-standard residues; d marks the D form. Ends that are not written are not given here. Orn = NCCC[C@H](N)C(=O)O
endpoint-name: EC50 [µM], FXa generation assay

INSERT INTO results (binder, result) VALUES
  ('VQRSTQLTCLYGGCRLFGWNYH', '> 20 µM'),
  ('RRAPGKLTCLASYCW[dL]FWTGIA (not fully specified (bridges); printed as RRAPGKLTCLASYCWlFWTGIA; cysteine pairing not given here) [RRAPGKLTCLASYCWlFWTGIA]', '> 1 µM'),
  ('KLTELASY[Orn]WLF (not fully specified; printed as KLT-Glu-LASY-Orn-WLF) [KLT-Glu-LASY-Orn-WLF]', '< 0.5 µM'),
  ('PRIRTVSPGSRSASGKLTCLASYCWLFWTGIA', '< 0.5 µM'),
  ('KGAYQKLTCLASYCLLFLLTAQ', '< 0.5 µM'),
  ('SGGSGKLTCLASYCWPFGSQVR', '> 50 µM');
